Entry source: ChEMBL document CHEMBL1129443

Recorded K2 values for a group of molecules are listed next.
- system.tested: Adenosylhomocysteinase (Homo sapiens, UniProt P23526)
test.readout: K2

- molecule: "CNC(=O)[C@H]1O[C@@H](n2cnc3c(N)ncnc32)[C@H](O)[C@@H]1O"
  test.readout: "K2"
  measured.result: "0.095 min⁻¹"
- molecule: "CC(C)COC(=O)[C@H]1OC(n2cnc3c(N)ncnc32)[C@H](O)[C@@H]1O (stereo not given in full)"
  test.readout: "K2"
  measured.result: "0.077 min⁻¹"
- molecule: "Nc1ncnc2c1ncn2C1O[C@H](C(=O)Nc2ccccc2)[C@@H](O)[C@H]1O (stereo not given in full)"
  test.readout: "K2"
  measured.result: "0.028 min⁻¹"
- molecule: "CC(C)OC(=O)[C@H]1OC(n2cnc3c(N)ncnc32)[C@H](O)[C@@H]1O (stereo not given in full)"
  test.readout: "K2"
  measured.result: "0.064 min⁻¹"
- molecule: "NC(=O)[C@H]1OC(n2cnc3c(N)ncnc32)[C@H](O)[C@@H]1O (stereo not given in full)"
  test.readout: "K2"
  measured.result: "0.1 min⁻¹"

* * *

Measured log10(K2) (Adenosylhomocysteinase (Homo sapiens, UniProt P23526))
test.readout: log10(K2) (log10 of the value in min⁻¹)

- molecule: "CCCCNC(=O)[C@H]1OC(n2cnc3c(N)ncnc32)[C@H](O)[C@@H]1O (some centres undefined)"
  log10(K2): -1.52
- molecule: "Nc1ncnc2c1ncn2C1O[C@H](C(=O)OCCCl)[C@@H](O)[C@H]1O (some centres undefined)"
  log10(K2): -0.46
- molecule: "Nc1ncnc2c1ncn2[C@@H]1O[C@H](C(=O)O)[C@@H](O)[C@H]1O [5'-CARBOXY ADENOSINE]"
  log10(K2): -1.35
- molecule: "CCCCOC(=O)[C@H]1OC(n2cnc3c(N)ncnc32)[C@H](O)[C@@H]1O (some centres undefined)"
  log10(K2): -0.96
- molecule: "CCN(CC)C(=O)[C@H]1OC(n2cnc3c(N)ncnc32)[C@H](O)[C@@H]1O (some centres undefined)"
  log10(K2): -1.30
- molecule: "Nc1ncnc2c1ncn2C1O[C@H](C(=O)NCc2ccccc2)[C@@H](O)[C@H]1O (some centres undefined)"
  log10(K2): -1.52
- molecule: "Nc1ncnc2c1ncn2C1O[C@H](C(=O)OCc2ccccc2)[C@@H](O)[C@H]1O (some centres undefined)"
  log10(K2): -1.77
- molecule: "COC(=O)[C@H]1O[C@@H](n2cnc3c(N)ncnc32)[C@H](O)[C@@H]1O"
  log10(K2): -0.11
- molecule: "Nc1ncnc2c1ncn2[C@@H]1O[C@H](C=O)[C@@H](O)[C@H]1O"
  log10(K2): -0.19

* * *

Recorded log10 Ki values for a group of molecules are listed next.
- system.tested: Adenosylhomocysteinase (Homo sapiens)
test.readout: log10 Ki (log10 of the value in nM)

- molecule: "CC(C)COC(=O)[C@H]1OC(n2cnc3c(N)ncnc32)[C@H](O)[C@@H]1O (some centres not stated)"
  system.tested: "Adenosylhomocysteinase (Homo sapiens)"
  log10 Ki: 2.76
- molecule: "Nc1ncnc2c1ncn2[C@@H]1O[C@H](C=O)[C@@H](O)[C@H]1O"
  system.tested: "Adenosylhomocysteinase (Homo sapiens)"
  log10 Ki: 1.59
- molecule: "CNC(=O)[C@H]1O[C@@H](n2cnc3c(N)ncnc32)[C@H](O)[C@@H]1O"
  system.tested: "Adenosylhomocysteinase (Homo sapiens)"
  log10 Ki: 3.29
- molecule: "CC(C)OC(=O)[C@H]1OC(n2cnc3c(N)ncnc32)[C@H](O)[C@@H]1O (some centres not stated)"
  system.tested: "Adenosylhomocysteinase (Homo sapiens)"
  log10 Ki: 2.89
- molecule: "Nc1ncnc2c1ncn2C1O[C@H](C(=O)OCCCl)[C@@H](O)[C@H]1O (some centres not stated)"
  system.tested: "Adenosylhomocysteinase (Homo sapiens)"
  log10 Ki: 2.51
- molecule: "CCN(CC)C(=O)[C@H]1OC(n2cnc3c(N)ncnc32)[C@H](O)[C@@H]1O (some centres not stated)"
  system.tested: "Adenosylhomocysteinase (Homo sapiens)"
  log10 Ki: 2.76
- molecule: "Nc1ncnc2c1ncn2C1O[C@H](C(=O)NCc2ccccc2)[C@@H](O)[C@H]1O (some centres not stated)"
  system.tested: "Adenosylhomocysteinase (Homo sapiens)"
  log10 Ki: 4.64
- molecule: "NC(=O)[C@H]1OC(n2cnc3c(N)ncnc32)[C@H](O)[C@@H]1O (some centres not stated)"
  system.tested: "Adenosylhomocysteinase (Homo sapiens)"
  log10 Ki: 3.41
- molecule: "Nc1ncnc2c1ncn2[C@@H]1O[C@H](C(=O)O)[C@@H](O)[C@H]1O"
  system.tested: "Adenosylhomocysteinase (Homo sapiens)"
  log10 Ki: 2.61
- molecule: "CCCCOC(=O)[C@H]1OC(n2cnc3c(N)ncnc32)[C@H](O)[C@@H]1O (some centres not stated)"
  system.tested: "Adenosylhomocysteinase (Homo sapiens)"
  log10 Ki: 2.85
- molecule: "COC(=O)[C@H]1O[C@@H](n2cnc3c(N)ncnc32)[C@H](O)[C@@H]1O"
  system.tested: "Adenosylhomocysteinase (Homo sapiens)"
  log10 Ki: 3.23
- molecule: "Nc1ncnc2c1ncn2C1O[C@H](C(=O)OCc2ccccc2)[C@@H](O)[C@H]1O (some centres not stated)"
  system.tested: "Adenosylhomocysteinase (Homo sapiens)"
  log10 Ki: 2.56
